Tested on: PPARgamma ligand-binding domain (Gal4-PPARgammaLBD)
Assay text: PPARgamma transactivation assay (Gal4-PPARgammaLBD, UASx4-TK luc reporter)
Type: cell-based
Condition context: PPARgamma activating activity compared with 10 microM DPD (SN1)
Measure name: PPAR

// known answers, use as guide
Compound: O=C(O)CC/C=C\C[C@@H]1COC(c2cccc3c2OCO3)O[C@@H]1c1ccccc1O (mixture of isomers)
Measure name: PPAR
Measured: P−
//
Compound: COc1ccccc1[C@H]1OC(C)(C)OC[C@H]1C/C=C\CCCCC(=O)O
Measure name: PPAR
Measured: Inactive
//
Compound: CC1(C)OC[C@@H](C/C=C\CCCCC(=O)O)[C@@H](c2ccccc2O)O1
Measure name: PPAR
Measured: Inactive
//
Compound: O=C(O)CC/C=C\C[C@@H]1COC(c2ccccc2Cl)O[C@@H]1c1ccccc1O (stereo partly shown)
Measure name: PPAR
Measured: Inactive

Entry COc1ccccc1[C@H]1O[C@@H](c2c(Cl)cccc2Cl)OC[C@H]1C/C=C\CCC(=O)O , tested on PPARgamma ligand-binding domain (Gal4-PPARgammaLBD), has a reported PPAR of Inactive

Just for reference, patent US20140288110A1 is where these values come from.
